- measurementDescription: Solid stability of compositions 1-11 and compounds 1A-11A: main component content over time under different conditions (Example 37, Table 32)
- Assay type: physicochemical
- conditionDetails: 40 ± 2° C./75 ± 5% RH, 10 d
quantityKind: main component content (%)

>>> valueobserved("O=C([O-])C(Cc1cccs1)N(CC(O)C(O)C(O)C(O)CO)C(=S)[S][Na].[Na+] (stereo not drawn) [Compound 8A]")
89.6
>>> valueobserved("O=C([O-])C(CC1CCCCC1)N(CC(O)C(O)C(O)C(O)CO)C(=S)[S][Na].[Na+] (stereo not drawn) [Compound 6A]")
91.0
>>> valueobserved("O=C([O-])C(CO)N(CC(O)C(O)C(O)C(O)CO)C(=S)[S][K].[K+] (stereo not drawn) [Compound 10A]")
90.3
>>> valueobserved("CC(C)C(C(=O)[O-])N(CC(O)C(O)C(O)C(O)CO)C(=S)[S][Na].[Na+] (stereo not drawn) [Compound 2A]")
90.1
>>> valueobserved("O=C([O-])CCC(C(=O)[O-])N(CC(O)C(O)C(O)C(O)CO)C(=S)[S][Na].[Na+].[Na+] (stereo not drawn) [Compound 5A]")
91.8
>>> valueobserved("O=C([O-])C(Cc1cncs1)N(CC(O)C(O)C(O)C(O)CO)C(=S)[S][Na].[Na+] (stereo not drawn) [Compound 9A]")
91.5
